Numbers sourced from the supplement of paper PMC6555819.

Test system: PPARg:RXRa 270nM:90nM, anti-RXR (NR concentration 270 nM, RXRa partner concentration 90 nM)
method notes: PBM binding z-score (relative to random genomic background probes); higher = stronger binding; sequences stand for … in GC…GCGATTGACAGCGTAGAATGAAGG
In this section we review reported PBM binding z-score values for a set of sequences.

{"primary sequence": "TCTGCTAGGTCAGTTGGTGAGCTAACGAGCTGCC", "PBM binding z-score": 1.38}
{"primary sequence": "CGTCCAAGTTCATAGGAGGTCAGTGAAGACAGAT", "PBM binding z-score": 2.43}
{"primary sequence": "TCTGCTAGATCAGTTGGTCAGCTAACGAGCTGCC", "PBM binding z-score": 0.389}
{"primary sequence": "GCTGCTAGGTCAGGTTGGTCAGCTATCGGGTACG", "PBM binding z-score": 1.19}
{"primary sequence": "TGAATGAGGTTATAAGAACAGGGAACGTTGCAAA", "PBM binding z-score": 1.6}
{"primary sequence": "TCTAGCAGGCCTGAGGGTCACTCAAGAGGTACGG", "PBM binding z-score": 1.57}
{"primary sequence": "TGAATGATGTTAAAGATCAGGGAACGTGGCGTCG", "PBM binding z-score": 2.98}
{"primary sequence": "TCTTGTAGATCAACATGAGGTTAAGAAAGATCGA", "PBM binding z-score": 1.66}
{"primary sequence": "CAGCCTACGTCAGGGCCAGTATAGGAGGAACGTT", "PBM binding z-score": -0.999}
{"primary sequence": "CCTTACGGGTCACGAGGTTATAACACGACGAGCG", "PBM binding z-score": 6.56}
{"primary sequence": "TAGCCTAGGTCATTGGGTCAGTATAGTACGCATC", "PBM binding z-score": 5.07}
{"primary sequence": "GCTAGTTGGTCAGTAATAGGTCACACACCGGTCG", "PBM binding z-score": 2.52}
{"primary sequence": "TATACAGGGTCAAAGGCCACAGTACGAATGTCGA", "PBM binding z-score": 8.36}
{"primary sequence": "CAAACTAGGTCAGAGAGGTCAAAGTCCGTGCGTA", "PBM binding z-score": 7.06}
{"primary sequence": "ATCTCTAGGTTACAAGTTCAGTGAAAGAGAGGAC", "PBM binding z-score": 3.25}
{"primary sequence": "ACTTACGGGTCAACGAGGTTTTAGCACGCGTATA", "PBM binding z-score": 4.84}
{"primary sequence": "CAAACTAGATCAAGGTCAAAGTCGGTTTGTGCCA", "PBM binding z-score": 3.99}
{"primary sequence": "CCTACTGGGCCACGAAAGGTCATTGATTCAGTGA", "PBM binding z-score": 5.08}
{"primary sequence": "GCTCGGAGGACAAGTTCAGAGCTTTGTCCGTAGA", "PBM binding z-score": -0.31}
{"primary sequence": "CATGCAGGGTCAGCTAGGCCAGAGTAGGGACGGC", "PBM binding z-score": 3.1}
{"primary sequence": "ATATGTAGGTTAAGGGTCATTAAGGTTGGTTCGC", "PBM binding z-score": 9.59}
{"primary sequence": "ATCTCTAGGTAAACATAGTTCAGTGAATGCAAAT", "PBM binding z-score": 1.07}
{"primary sequence": "TCTCGGACGACACGAAGGTCAGAGCTTTCCAGAG", "PBM binding z-score": 1.77}
{"primary sequence": "TCGAGTAGGTTAGGGGCATTAAGAATGGCGTCGA", "PBM binding z-score": 2.13}
{"primary sequence": "CTCGAAAGATCGTGCTCAGGTGAGTATACCAAAC", "PBM binding z-score": -0.399}
{"primary sequence": "ATAAGTAGGTTAAGGGTCATTCAGGTTGGTTCGC", "PBM binding z-score": 9.92}
{"primary sequence": "GTACCAAGGTGAATAGGTCTTTGATGAGTAGGCG", "PBM binding z-score": 1.11}
{"primary sequence": "TCATATAGTTAAACAGGTGAAAGTCCGTAAGTTA", "PBM binding z-score": 2.68}
{"primary sequence": "AGACCGAGGGCAATGAGTTGATAGCACGGGTGGC", "PBM binding z-score": -0.467}
{"primary sequence": "TATACAGGGTCAAAGGCCAGAGTTCGAATGTCGA", "PBM binding z-score": 7.27}
{"primary sequence": "CCTACTGGGACAAAGGTCATTGATTCCAATGCTC", "PBM binding z-score": 10.3}
{"primary sequence": "ATATGTATGTTATCGGGTCATTCAGTTTGCGCAT", "PBM binding z-score": 2.71}
{"primary sequence": "AGAAAGAGGTTAAGATCAGGGAAACAGAATACAT", "PBM binding z-score": 1.89}
{"primary sequence": "ATCTCTCGGTAACAAGTTCAGTGAAAGAGAGGAC", "PBM binding z-score": 0.369}
{"primary sequence": "CGTCCAAGGTCAGAGAGGTCAATGAATGCCGAGT", "PBM binding z-score": 4.67}
{"primary sequence": "CCAGACAGGTGAAAGGTGACTCAGTCTGGTACGC", "PBM binding z-score": 6.76}
{"primary sequence": "CGTCAAAGTTCAACTAAGGTACCGTAAAGCACGC", "PBM binding z-score": 5.42}
{"primary sequence": "AGAACGAGGGCAATGACTTGATAGCACGGGTGGC", "PBM binding z-score": 0.813}
{"primary sequence": "GCGACTGGGGCAAAGCAGGTTCCCATAAGGTTGG", "PBM binding z-score": 0.847}
{"primary sequence": "ATATGTAGGTTAGCTGGGGTAATTCAGACTAGGC", "PBM binding z-score": 3}
{"primary sequence": "CGTCCAAGGTCAATGGTAGGTCAGTGAAAGCATT", "PBM binding z-score": 4.73}
{"primary sequence": "TTACCAAGGTGAGCTGAGGCCGTTGATCCAACTC", "PBM binding z-score": -0.253}
{"primary sequence": "GCTACAGGGTCAAGGCCAGAGTACGCGTATTGAT", "PBM binding z-score": 4.94}
{"primary sequence": "GGAACGAGGGCATTCGAGTTGAAAGCATGGCGAT", "PBM binding z-score": 0.887}
{"primary sequence": "GCTCGGAGGACAAGGTCAGAGTTTTGTCCGTAGA", "PBM binding z-score": 1.89}
{"primary sequence": "CAAACTAGGTCACGAAAGGTGAAAGTCGAATGAC", "PBM binding z-score": 7.7}
{"primary sequence": "CGAACTAGCTCATCCAGGACAGTGAATACATTGA", "PBM binding z-score": -0.572}
{"primary sequence": "CTGACTGGGGCAGAAAGGTTACCATACCATCCGG", "PBM binding z-score": 3}
{"primary sequence": "TCTGCGAGGTCAACGATGGTCAGCTAATCTGCTA", "PBM binding z-score": 6.12}
{"primary sequence": "CCTGCTATGTCATGGTCAGCTAATCTACAGTATG", "PBM binding z-score": -0.104}
{"primary sequence": "TCTGCTAGGTCAACTATGGTCAGCTAATCTGCTA", "PBM binding z-score": 3.29}
